Experiment: Biodistribution in C57BL/6J mice bearing B16–F10 melanoma
Assay type: in vivo
Conditions: C57BL/6J, mouse, lungs, intravenous, total radioactivity
Reported Property: tissue uptake at 1 h

INSERT INTO measurements (compound, reported_property, reported) VALUES
  ('CCCC[C@H](NC(=O)CN1CCC(NC(=O)CN2CCN(CC(=O)O)CCN(CC(=O)O)CCN(CC(=O)O)CC2)CC1)C(=O)N[C@H]1CC(=O)NCCCC[C@@H](C(N)=O)N(C)C(=O)[C@H](Cc2c[nH]c3ccccc23)N(C)C(=O)[C@H](CCCNC(=N)N)N(C)C(=O)[C@@H](Cc2ccccc2)NC(=O)[C@H](Cc2cnc[nH]2)N(C)C1=O [[^68Ga]Ga-CCZ01099, metal not drawn]', 'tissue uptake at 1 h', '0.69 %ID/g');

====

Assay: Biodistribution in C57BL/6J mice bearing B16–F10 melanoma
Format: in vivo
Settings: male, C57BL/6J, mouse, testes, intravenous, total radioactivity
Reported Property: tissue uptake at 1 h (%ID/g)

INSERT INTO assay_data (compound, reported) VALUES
  ('CCCC[C@H](NC(=O)CN1CCC(NC(=O)CN2CCN(CC(=O)O)CCN(CC(=O)O)CCN(CC(=O)O)CC2)CC1)C(=O)N[C@H]1CC(=O)NCCCC[C@@H](C(N)=O)N(C)C(=O)[C@H](Cc2c[nH]c3ccccc23)N(C)C(=O)[C@H](CCCNC(=N)N)N(C)C(=O)[C@@H](Cc2ccccc2)NC(=O)[C@H](Cc2cnc[nH]2)N(C)C1=O [[^68Ga]Ga-CCZ01099, metal not drawn]', 0.2);

====

Assay: Biodistribution in C57BL/6J mice bearing B16–F10 melanoma
Type: in vivo
Details: C57BL/6J, mouse, liver, intravenous, total radioactivity
Reported Property: tissue uptake at 1 h (%ID/g)

INSERT INTO measurements (compound, unit_abbrev, reported) VALUES
  ('CCCC[C@H](NC(=O)CN1CCC(NC(=O)CN2CCN(CC(=O)O)CCN(CC(=O)O)CCN(CC(=O)O)CC2)CC1)C(=O)N[C@H]1CC(=O)NCCCC[C@@H](C(N)=O)N(C)C(=O)[C@H](Cc2c[nH]c3ccccc23)N(C)C(=O)[C@H](CCCNC(=N)N)N(C)C(=O)[C@@H](Cc2ccccc2)NC(=O)[C@H](Cc2cnc[nH]2)N(C)C1=O [[^68Ga]Ga-CCZ01099, metal not drawn]', '%ID/g', 0.53);

====

Assay: Biodistribution in C57BL/6J mice bearing B16–F10 melanoma
Assay type: in vivo
Settings: C57BL/6J, mouse, adrenal glands, intravenous, total radioactivity
Reported Property: tissue uptake at 1 h (%ID/g)

INSERT INTO results (compound, reported) VALUES
  ('CCCC[C@H](NC(=O)CN1CCC(NC(=O)CN2CCN(CC(=O)O)CCN(CC(=O)O)CCN(CC(=O)O)CC2)CC1)C(=O)N[C@H]1CC(=O)NCCCC[C@@H](C(N)=O)N(C)C(=O)[C@H](Cc2c[nH]c3ccccc23)N(C)C(=O)[C@H](CCCNC(=N)N)N(C)C(=O)[C@@H](Cc2ccccc2)NC(=O)[C@H](Cc2cnc[nH]2)N(C)C1=O [[^68Ga]Ga-CCZ01099, metal not drawn]', 0.79);

====

Test: Biodistribution in C57BL/6J mice bearing B16–F10 melanoma
Type: in vivo
Details: C57BL/6J, mouse, tumor and liver, iv, total radioactivity
Reported Property: tissue to tissue ratio at 1 h

INSERT INTO measurements (molecule, reported) VALUES
  ('CCCC[C@H](NC(=O)CN1CCC(NC(=O)CN2CCN(CC(=O)O)CCN(CC(=O)O)CCN(CC(=O)O)CC2)CC1)C(=O)N[C@H]1CC(=O)NCCCC[C@@H](C(N)=O)N(C)C(=O)[C@H](Cc2c[nH]c3ccccc23)N(C)C(=O)[C@H](CCCNC(=N)N)N(C)C(=O)[C@@H](Cc2ccccc2)NC(=O)[C@H](Cc2cnc[nH]2)N(C)C1=O [[^68Ga]Ga-CCZ01099, metal not drawn]', 11.9);
